Target: UniProt O75469
Experiment: cell-based hPXR antagonistic assay
Conditions: read-out: Antagonist (% inhibition at 10 μM)
Kindly return Y if reported inhibition at 10 µM is no lower than 70%; return N if it is lower.

// below: answered compounds
Q) I'd appreciate it if you could say whether COc1ccc(OC)c(-n2nnc(C(=O)Nc3cc(OCCCCCCCCI)cc(C(C)(C)C)c3)c2C)c1 [D21] has inhibition at 10 µM at least equal to 70%.
A) Y

Q) Quick check, inhibition at 10 µM >= 70%? COc1ccc(C)cc1-n1nnc(C(=O)Nc2ccc(OC)c(C(C)(C)C)c2)c1C [G3]
A) Y

Q) Decide: is the reported value of inhibition at 10 µM for COc1ccc(OC)c(-n2nnc(C(=O)Nc3cc(C(C)(C)C)ccc3OCCOCCOCCOCCO)c2C)c1 [B10] equal to or greater than 70%?
A) Y

Q) Assess whether reported inhibition at 10 µM for COc1ccc(OC)c(-n2nnc(C(=O)Nc3cc(C(C)(C)C)ccc3OCCCCCCCCI)c2C)c1 [B19] sits at 70% or higher.
A) Y

Q) Please check the record CCC(C)Oc1ccc(C(C)(C)C)cc1NC(=O)c1nnn(-c2ccccc2OC)c1C (stereo not shown) [I3] and state if its inhibition at 10 µM is at or above 70%.
A) N

Q) Given the entry COCCOCCOCCOCCOc1cc(NC(=O)c2nnn(-c3cc(OC)ccc3OC)c2C)cc(C(C)(C)C)c1 [D27] , answer whether its inhibition at 10 µM meets or surpasses 70%.
A) Y

More entries:
Q) Does the compound COc1ccc(OC)c(-n2nnc(C(=O)Nc3ccc4c(c3)Nc3ccccc3CC4)c2C)c1 [A23] have recorded inhibition at 10 µM that is 70% or more?
A) N

Q) inhibition at 10 µM >= 70% for COc1ccc(OC)c(-n2nnc(C(=O)Nc3cc(NCC(=O)O)cc(C(C)(C)C)c3)c2C)c1 [D9] ?
A) N

Q) API: above_or_equal(metric=inhibition at 10 µM, cutoff=70%) for item COc1ccc(OC)c(-n2nnc(C(=O)Nc3cc(C(C)(C)C)ccc3OCCCCN3CCN(C)CC3)c2C)c1 [B22]
A) Y

---

Molecular target: hPXR (Homo sapiens (Human))
Experiment: cell-based hPXR antagonistic assay
pIC50: −log10 of the molar value.
MEASURED_PROPERTY: pIC50

Q) Annotate the compound `COc1ccc(OC)c(-n2nnc(C(=O)Nc3cccc(N(C)C)c3)c2C)c1` with its measured pIC50.
A) < 4.52

Q) Give reported pIC50 value for `COc1ccc(OC)c(-n2nnc(C(=O)Nc3cc(C(C)(C)C)ccc3N)c2C)c1`
A) < 4.52

Q) Quote pIC50 reported for `COc1ccc(OC)c(-n2nnc(C(=O)Nc3ccc(C)cc3)c2C)c1` please.
A) < 4.52

Q) Please report pIC50 for the following compound: `CCCCOc1ccc(C(C)(C)C)cc1NC(=O)c1nnn(-c2cccnc2)c1C`
A) < 4.52

Q) Output measured pIC50 for this item: `COc1ccc(OC)c(-n2nnc(C(=O)Nc3cccc(C)c3)c2C)c1`
A) < 4.52

Q) Give pIC50 for the following compound: `COc1ccc(-n2nnc(C(=O)Nc3ccc(N)c(C(C)(C)C)c3)c2C)cc1`
A) < 4.52

Q) Query pIC50 for `COc1ccc(OC)c(-n2nnc(C(=O)Nc3ccccc3)c2C)c1`
A) < 4.52

Q) Using known records, supply pIC50 for `CCCCOc1ccc(C(C)(C)C)cc1NC(=O)c1nnn(-c2ccc(OC)cc2)c1C`
A) < 4.52

Continuing:
Q) Give the reported value of pIC50 for this record: `COc1ccc(OC)c(-n2nnc(C(=O)Nc3cccc(N4CCN(C)CC4)c3)c2C)c1`
A) < 4.52

Q) Please give the documented pIC50 of `CCCCOc1ccc(C(C)(C)C)cc1NC(=O)c1nnn(-c2ccc3c(c2)OCO3)c1C`
A) < 4.52

Q) Please look at this compound and report its pIC50: `COc1ccc(OC)c(-n2nnc(S(=O)(=O)Nc3cccc(C(C)(C)C)c3)c2C)c1`
A) < 4.52

Q) Provide pIC50 value for the following compound: `COc1ccc(C)cc1-n1nnc(C(=O)Nc2cc(O)cc(C(C)(C)C)c2)c1C`
A) 5.88

Q) Input `CCC[C@H](CC)Oc1ccc(C(C)(C)C)cc1NC(=O)c1nnn(-c2cc(OC)c(F)cc2OC)c1C` , output reported pIC50.
A) 7.64

---

Entries and their inhibition at 10 µM values follow.
Molecular target: hPXR (Homo sapiens (Human), UniProt O75469)
Sequence (O75469 whole entry): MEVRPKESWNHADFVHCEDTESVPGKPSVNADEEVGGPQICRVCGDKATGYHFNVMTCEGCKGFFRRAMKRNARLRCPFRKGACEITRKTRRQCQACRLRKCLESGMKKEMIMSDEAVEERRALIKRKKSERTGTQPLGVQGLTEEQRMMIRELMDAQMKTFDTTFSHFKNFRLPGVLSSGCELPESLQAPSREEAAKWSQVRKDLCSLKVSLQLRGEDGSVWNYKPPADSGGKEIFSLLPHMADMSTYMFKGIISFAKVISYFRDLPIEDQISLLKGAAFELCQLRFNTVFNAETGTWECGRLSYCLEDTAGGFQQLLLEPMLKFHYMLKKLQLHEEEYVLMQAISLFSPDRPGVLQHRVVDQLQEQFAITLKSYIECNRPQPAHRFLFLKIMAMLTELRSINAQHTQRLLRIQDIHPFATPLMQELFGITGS
Test: hPXR binding assay
Conditions: read-out: Binding (% inhibition at 10 μM)
Provide only the numeric value, understood in %.

Take a look at these entries with their results.
Q) Give the value of inhibition at 10 µM reported for the following: COc1ccc(C)cc1-n1nnc(C(=O)Nc2cc(O)cc(C(C)(C)C)c2)c1C [G7]
A) 81

Q) Please give the documented inhibition at 10 µM of CCC(C)Oc1ccc(C(C)(C)C)cc1NC(=O)c1nnn(-c2ccccc2OC)c1C (centres unmarked) [I3]
A) 88

Q) Supply recorded inhibition at 10 µM for COc1ccc(C)cc1-n1nnc(C(=O)Nc2ccc(O)c(C(C)(C)C)c2)c1C [G2] here.
A) 75

Further cases:
Q) Query inhibition at 10 µM for COc1ccc(OC)c(-n2nnc(N(S(=O)(=O)c3ccc(C(C)(C)C)cc3)S(=O)(=O)c3ccc(C(C)(C)C)cc3)c2C)c1 [K8]
A) 70

Q) Give the reported value of inhibition at 10 µM for this record: CCCC(C)Oc1ccc(C(C)(C)C)cc1NC(=O)c1nnn(-c2cc(C)ccc2OC)c1C (centres unmarked) [G11]
A) 91

Q) Using known records, supply inhibition at 10 µM for CCC[C@H](CC)Oc1ccc(C(C)(C)C)cc1NC(=O)c1nnn(-c2cc(OC)c(OC)cc2OC)c1C [M9]
A) 91

Q) # return recorded inhibition at 10 µM for input COc1ccc(OC)c(-n2nnc(C(=O)Nc3cc(OCCCC(=O)O)cc(C(C)(C)C)c3)c2C)c1 [D30]
A) 71

Q) Provide measured inhibition at 10 µM value, entry: CCOc1cc(NC(=O)c2nnn(-c3cc(OC)ccc3OC)c2C)nc(OCC)n1 [A18]
A) 36

Q) State its inhibition at 10 µM: CCCCOc1ccc(C(C)(C)C)cc1NC(=O)c1nnn(-c2cc(OC)ccc2Br)c1C [H10]
A) 28

Q) Please report inhibition at 10 µM for the following compound: COc1ccc(OC)c(-n2nnc(C(=O)Nc3cc(C(C)(C)C)ccc3OCC(=O)OC(C)(C)C)c2C)c1 [B24]
A) 74

Q) Consider the compound COc1ccc(OC)c(-n2nnc(C(=O)Nc3cc(C(C)(C)C)ccc3OCCN(C)C)c2C)c1 [B14] and give its recorded inhibition at 10 µM.
A) 87

---

Target: hPXR (Homo sapiens (Human))
Assay: cell-based hPXR agonistic assay
Reported EC50 values follow for various molecules

Q) Item `C#CCCCOc1cc(NC(=O)c2nnn(-c3cc(OC)ccc3OC)c2C)cc(C(C)(C)C)c1` : provide EC50
A) > 30 µM

Q) Hello, please tell me recorded EC50 for this one: `COc1ccc(OC)c(-n2nnc(C(=O)Nc3cc(-n4cnc(C)c4)cc(C(F)(F)F)c3)c2C)c1`
A) > 30 µM

Q) Quick one: give measured EC50 for `COc1ccc(OC)c(-n2nnc(C(=O)Nc3cc(C(C)(C)C)ccc3OCCN3CCOCC3)c2C)c1`
A) > 30 µM

Q) Provide measured EC50 value, entry: CCC(C)Oc1ccc(C(C)(C)C)cc1NC(=O)c1nnn(-c2cc(C)ccc2OC)c1C (stereo not drawn)
A) 0.018 µM

Q) Assign EC50 to the following record: CCCC(CC)Oc1ccc(C(C)(C)C)cc1NC(=O)c1nnn(-c2cc(OC)ccc2OC)c1C (stereo not drawn)
A) > 30 µM

Q) Report measured EC50; entry is `COc1ccc(-n2nnc(C(=O)Nc3ccc(N)c(C(C)(C)C)c3)c2C)cc1`
A) 0.86 µM

---

Target: hPXR (Homo sapiens (Human))
Assay: hPXR binding assay
Details: read-out: Binding (% inhibition at 10 μM)
The compounds listed here are annotated with their inhibition at 10 µM.

Recorded inhibition at 10 µM, per entry:
Q) Provide one value: measured inhibition at 10 µM of COc1ccc(C)cc1-n1nnc(C(=O)Nc2cc(N)cc(C(C)(C)C)c2)c1C [G5]
A) 57%

Q) Given COc1ccc(OC)c(-n2nnc(C(=O)Nc3ccc(NC(C)=O)c(C(C)(C)C)c3)c2C)c1 [C1] , respond with its inhibition at 10 µM.
A) 65%

Q) Find the measured inhibition at 10 µM of CCCC(CC)Oc1ccc(C(C)(C)C)cc1NC(=O)c1nnn(-c2ccccc2OC)c1C (centres unmarked) [I1] and report it.
A) 89%

Q) Note down inhibition at 10 µM recorded for COc1cc(NC(=O)c2nnn(-c3cc(C)ccc3OC)c2C)cc(C(C)(C)C)c1 [G8]
A) 57%

---
Q) Read the entry COc1ccc(OC)c(-n2nnc(C(=O)Nc3cccc(N(C)C)c3)c2C)c1 [A10] and write its reported inhibition at 10 µM.
A) 49%

Q) Report measured inhibition at 10 µM; entry is COc1ccc(OC)c(-n2nnc(C(=O)Nc3cc(OCC(=O)OC(C)(C)C)cc(C(C)(C)C)c3)c2C)c1 [D31]
A) 73%

Q) Identify measured inhibition at 10 µM corresponding to CCc1cccc(NC(=O)c2nnn(-c3cc(OC)ccc3OC)c2C)c1 [A8]
A) 49%

Q) Please report inhibition at 10 µM for the following compound: COc1ccc(Cl)cc1-n1nnc(C(=O)Nc2cc(N)cc(C(C)(C)C)c2)c1C [F2]
A) 65%
